- tested-on: Cytochrome P450 2C19 (Homo sapiens, UniProt P33261)
- Sequence (P33261 whole entry): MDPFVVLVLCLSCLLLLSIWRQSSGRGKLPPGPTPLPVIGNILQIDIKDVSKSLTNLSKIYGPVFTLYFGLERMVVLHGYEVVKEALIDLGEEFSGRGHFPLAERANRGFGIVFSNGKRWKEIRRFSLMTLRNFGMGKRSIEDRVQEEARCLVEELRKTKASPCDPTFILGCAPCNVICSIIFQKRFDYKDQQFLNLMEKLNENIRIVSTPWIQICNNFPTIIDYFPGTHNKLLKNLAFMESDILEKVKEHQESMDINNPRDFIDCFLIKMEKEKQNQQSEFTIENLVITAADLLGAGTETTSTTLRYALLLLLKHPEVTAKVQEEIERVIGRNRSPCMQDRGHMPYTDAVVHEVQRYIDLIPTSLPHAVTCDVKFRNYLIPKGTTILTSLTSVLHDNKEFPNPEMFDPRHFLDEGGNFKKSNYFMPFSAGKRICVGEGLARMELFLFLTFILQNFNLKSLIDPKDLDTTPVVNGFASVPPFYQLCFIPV
pIC50: −log10 of the molar value.
measure: pIC50

Task: Write down pIC50 measured for item CNC(=O)[C@@]12C[C@@H]1[C@@H](n1cnc3c(NC(C4CC4)C4CC4)nc(Cl)nc31)[C@H](O)[C@@H]2O
Result: < 4.52

* * *

- tested-on: Adenosine receptor A3 (Mus musculus) (UniProt Q61618)
- Sequence (Q61618 whole entry): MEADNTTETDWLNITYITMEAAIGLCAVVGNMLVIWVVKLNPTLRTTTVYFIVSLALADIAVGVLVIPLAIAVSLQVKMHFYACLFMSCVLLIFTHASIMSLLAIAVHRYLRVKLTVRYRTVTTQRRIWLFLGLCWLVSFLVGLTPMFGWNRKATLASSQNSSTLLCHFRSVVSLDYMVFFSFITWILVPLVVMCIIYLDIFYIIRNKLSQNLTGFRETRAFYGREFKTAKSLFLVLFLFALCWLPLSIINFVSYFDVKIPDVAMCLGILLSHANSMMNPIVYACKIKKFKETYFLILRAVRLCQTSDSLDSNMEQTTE
- assay-explanation: Agonist activity at recombinant mouse A3AR expressed in HEK293 cells assessed as inhibition of forskolin-stimulated cAMP accumulation at 10 uM after 15 mins relative to adenosine-5'-N-ethyluronamide
- Assay type: functional, cell-based
measure: Imax (%)
State just the number; it will be interpreted in %.

compound	measure	result-value
CNC(=O)[C@@]12C[C@@H]1[C@@H](n1cnc3c(NC(C4CC4)C4CC4)nc(Cl)nc31)[C@H](O)[C@@H]2O	Imax	96.7
CCNC(=O)[C@H]1O[C@@H](n2cnc3c(N)ncnc32)[C@H](O)[C@@H]1O [NECA]	Imax	100
CCOC(=O)[C@@]12C[C@@H]1[C@@H](n1cnc3c(NC(C4CC4)C4CC4)nc(Cl)nc31)[C@H](O)[C@@H]2O	Imax	26.3

Shifting focus to the compound that follows.
Task: Write down Imax measured for item COC(=O)[C@@]12C[C@@H]1[C@@H](n1cnc3c(NC(C4CC4)C4CC4)nc(Cl)nc31)[C@H](O)[C@@H]2O
Result: 41.4

* * *

Below, each entry is listed with its recorded pKi.
- tested-on: Adenosine receptor A3 (Homo sapiens)
- Sequence (P0DMS8 whole entry): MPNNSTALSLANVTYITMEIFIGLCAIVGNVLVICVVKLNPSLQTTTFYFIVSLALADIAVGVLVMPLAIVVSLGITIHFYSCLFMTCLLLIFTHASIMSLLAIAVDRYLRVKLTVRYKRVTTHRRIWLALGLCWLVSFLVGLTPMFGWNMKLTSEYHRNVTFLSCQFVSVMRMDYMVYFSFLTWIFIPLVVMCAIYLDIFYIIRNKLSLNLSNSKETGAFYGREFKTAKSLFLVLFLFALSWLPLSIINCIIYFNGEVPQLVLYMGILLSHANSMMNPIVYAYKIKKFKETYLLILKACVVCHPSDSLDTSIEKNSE
- assay-explanation: Displacement of [125l]N 6-(4-amino-3-iodobenzyl)adenosine-5'-N-methyluronamide from recombinant human A3AR expressed in CHO cell membranes after 60 mins by gamma counting method
Remember the convention: pKi equals -log10 of concentration in molar.

CNC(=O)[C@@]12C[C@@H]1[C@@H](n1cnc3c(NC(C4CC4)C4CC4)nc(Cl)nc31)[C@H](O)[C@@H]2O 7.47
CC(C)[C@H](Nc1nc(Cl)nc2c1ncn2[C@H]1[C@H](O)[C@H](O)[C@]2(CO)C[C@H]12)C1CC1 5.46
OC[C@@]12C[C@@H]1[C@@H](n1cnc3c(NC(C4CC4)C4CC4)nc(Cl)nc31)[C@H](O)[C@@H]2O 5.80
CCCOC(=O)[C@@]12C[C@@H]1[C@@H](n1cnc3c(NC(C4CC4)C4CC4)nc(Cl)nc31)[C@H](O)[C@@H]2O 6.30
CNC(=O)[C@@]12C[C@@H]1[C@@H](n1cnc3c(N(C)C)nc(C#Cc4ccc(Cl)s4)nc31)[C@H](O)[C@@H]2O 7.63
CC(=O)NCCNC(=O)[C@@]12C[C@@H]1[C@@H](n1cnc3c(NC(C4CC4)C4CC4)nc(Cl)nc31)[C@H](O)[C@@H]2O 5.78
CN(C)c1nc(Cl)nc2c1ncn2[C@H]1[C@H](O)[C@H](O)[C@]2(C(=O)O)C[C@H]12 5.97
CCC(CC)Nc1nc(Cl)nc2c1ncn2[C@H]1[C@H](O)[C@H](O)[C@]2(CO)C[C@H]12 5.92
CCOC(=O)[C@@]12C[C@@H]1[C@@H](n1cnc3c(NC(C4CC4)C4CC4)nc(Cl)nc31)[C@H](O)[C@@H]2O 6.63
COC(=O)[C@@]12C[C@@H]1[C@@H](n1cnc3c(NC(C4CC4)C4CC4)nc(Cl)nc31)[C@H](O)[C@@H]2O 6.12

Task: Write down pKi measured for item CNC(=O)[C@@]12C[C@@H]1[C@@H](n1cnc3c(N(C)C)nc(Cl)nc31)[C@H](O)[C@@H]2O
Result: 5.83

Task: Write down pKi measured for item O=C(O)[C@@]12C[C@@H]1[C@@H](n1cnc3c(NC(C4CC4)C4CC4)nc(Cl)nc31)[C@H](O)[C@@H]2O
Result: 5.22

Task: Write down pKi measured for item CC(C)[C@@H](Nc1nc(Cl)nc2c1ncn2[C@H]1[C@H](O)[C@H](O)[C@]2(CO)C[C@H]12)C1CC1
Result: 5.91
